Could you please report measured koff for the items listed next?
# TARGET ENTITY: T1, human SIRPγ isoform 1 (human, UniProt Q9P1W8 29-147)
# T1 construct: also called Gamma; Human SIRPg
# T1 sequence (Q9P1W8 29-147 limits assumed): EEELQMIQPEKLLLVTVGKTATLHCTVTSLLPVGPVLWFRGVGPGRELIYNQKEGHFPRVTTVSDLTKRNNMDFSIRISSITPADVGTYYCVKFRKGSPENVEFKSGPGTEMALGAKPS
# ASSAY NAME: SPR
Answers are plain numbers, in s⁻¹.

Guide cases for koff, answers given:
Prompt: What does the record list as koff for antibody 25 (antibody, V domains shown, also called AB25; S25) VH: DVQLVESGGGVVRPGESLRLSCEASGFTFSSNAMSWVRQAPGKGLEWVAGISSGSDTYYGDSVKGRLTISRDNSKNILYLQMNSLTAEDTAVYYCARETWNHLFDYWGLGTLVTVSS VL: ALTQPASVSANPGETVEITCSGGSYSSYYYAWYQQKSPGSAPVTLIYSDDKRPSNIPSRFSGSASGSTATLTITGVRAEDEAVYFCGGYDQSSYTNPFGAGTTLTVL ?
Response: 0.000203

Prompt: Entry antibody 66 (antibody, V domains shown, also called AB66; S66) VH: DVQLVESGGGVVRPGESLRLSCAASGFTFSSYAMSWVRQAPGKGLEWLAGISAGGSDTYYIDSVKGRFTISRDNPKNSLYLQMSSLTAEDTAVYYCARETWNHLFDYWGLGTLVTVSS VL: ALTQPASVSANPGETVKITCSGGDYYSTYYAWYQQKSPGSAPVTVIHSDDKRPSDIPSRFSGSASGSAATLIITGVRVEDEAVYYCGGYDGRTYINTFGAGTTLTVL please
Response: 0.000997

Prompt: Would you kindly repeat that for Hum3/AB25_HC_wt (antibody, V domains shown) VH: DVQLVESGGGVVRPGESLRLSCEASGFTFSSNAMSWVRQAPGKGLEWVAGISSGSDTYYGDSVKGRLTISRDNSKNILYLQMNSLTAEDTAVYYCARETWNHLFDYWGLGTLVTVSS VL: SYELTQPPSVSVSPGQTARITCSGGDYYSTYYAWYQQKPGQAPVTVIHSDDKRPSDIPERFSGSSSGTTVTLTISGVQAEDEADYYCGGYDGRTYINTFGGGTKLTVL ?
Response: 0.000169

Prompt: Try the binder Hum1/AB25_HC_wt (antibody, V domains shown) VH: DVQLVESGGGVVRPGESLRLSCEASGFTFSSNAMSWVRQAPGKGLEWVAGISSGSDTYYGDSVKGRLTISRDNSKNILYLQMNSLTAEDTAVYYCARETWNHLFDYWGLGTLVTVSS VL: SYELTQPPSVSVSPGQTARITCSGGSYSSYYYAWYQQKPGQAPVTLIYSDDKRPSNIPERFSGSSSGTTVTLTISGVQAEDEADYYCGGYDQSSYTNPFGGGTKLTVL
Response: 0.000203

Prompt: One more binder: Hum3/AB66_HC_wt (antibody, V domains shown) VH: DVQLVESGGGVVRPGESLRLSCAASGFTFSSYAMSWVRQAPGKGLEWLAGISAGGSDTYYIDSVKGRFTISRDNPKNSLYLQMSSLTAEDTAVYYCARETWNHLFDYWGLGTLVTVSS VL: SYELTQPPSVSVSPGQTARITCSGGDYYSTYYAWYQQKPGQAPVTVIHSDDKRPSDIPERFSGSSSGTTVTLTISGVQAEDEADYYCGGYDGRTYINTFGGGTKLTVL
Response: 0.000135

Provide koff for all items below, preserving their order.
1. Hum1/AB66_HC_wt (antibody, V domains shown) VH: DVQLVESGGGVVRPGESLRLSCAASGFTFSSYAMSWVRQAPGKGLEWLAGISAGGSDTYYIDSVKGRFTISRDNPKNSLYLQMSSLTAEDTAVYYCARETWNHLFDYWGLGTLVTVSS VL: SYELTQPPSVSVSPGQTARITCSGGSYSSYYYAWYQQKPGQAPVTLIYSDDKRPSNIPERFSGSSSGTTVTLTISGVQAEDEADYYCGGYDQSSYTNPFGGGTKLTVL
2. Hum1/AB21_HC_wt (antibody, V domains shown) VH: DVQLVESGGGVVRPGESLRLSCAASGFTFSSNAMSWVRQAPGKGLEWLAGISAGGSDTYYPASVKGRFTISRDNSKNTLYLQMNTLTAEDTAVYYCARETWNHLFDYWGLGTLVTVSS VL: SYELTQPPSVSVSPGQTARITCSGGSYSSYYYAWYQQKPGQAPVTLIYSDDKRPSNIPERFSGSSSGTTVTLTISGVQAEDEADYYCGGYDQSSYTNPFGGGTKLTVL

Response:
0.000136
0.000188

Entry source: patent US20210363269A1
